// provenance: ChEMBL document CHEMBL3864138

experiment: Cytotoxicity against HEL cells assessed as alteration of cell morphology after 3 days by microscopic analysis
Format: toxicity, cell-based
conditions: human

lineNotation | MCC at 72 h
CCn1c(=O)n(O)c(=O)c2cc(-c3cn(Cc4ccc(F)cc4F)nn3)ccc21 | 20 µM
CCn1c(=O)n(O)c(=O)c2cc(-c3cn(Cc4c(F)cccc4F)nn3)ccc21 | > 100 µM
Cn1c(=O)n(O)c(=O)c2cc(-c3cn(Cc4ccc(F)cc4F)nn3)ccc21 | 100 µM
Cn1c(=O)n(O)c(=O)c2cc(-c3cn(Cc4ccc(F)cc4)nn3)ccc21 | > 100 µM
O=c1[nH]c(=O)n([C@H]2C[C@H](O)[C@@H](CO)O2)cc1/C=C/Br | > 250 µM
Cn1c(=O)n(O)c(=O)c2cc(-c3cn(Cc4cccc(F)c4)nn3)ccc21 | > 100 µM
Nc1ccn([C@H]2CC[C@@H](CO)O2)c(=O)n1 | > 250 µM
CCn1c(=O)n(O)c(=O)c2cc(-c3cn(Cc4ccc([N+](=O)[O-])cc4)nn3)ccc21 | > 100 µM
Cn1c(=O)n(O)c(=O)c2cc(-c3cn(Cc4ccccc4)nn3)ccc21 | > 100 µM
COc1ccc(Cn2cc(-c3ccc4c(c3)c(=O)n(O)c(=O)n4C)nn2)cc1 | > 100 µM
CCn1c(=O)n(O)c(=O)c2cc(-c3cn(Cc4cc(F)ccc4F)nn3)ccc21 | 20 µM
CCn1c(=O)n(O)c(=O)c2cc(-c3cn(Cc4ccc(F)c(F)c4)nn3)ccc21 | 20 µM
CCn1c(=O)n(O)c(=O)c2cc(-c3cn(Cc4cccc(F)c4)nn3)ccc21 | > 100 µM
Cn1c(=O)n(O)c(=O)c2cc(-c3cn(Cc4ccccc4F)nn3)ccc21 | > 100 µM
Cn1c(=O)n(O)c(=O)c2cc(-c3cn(Cc4cc(F)ccc4F)nn3)ccc21 | > 100 µM

====

System: Human adenovirus 2
experiment: Antiviral activity against Human adenovirus 2 infected in HEL cells assessed as inhibition of virus-induced cytopathicity
Assay type: functional, cell-based
conditions: Human mastadenovirus C
pEC50: −log10 of the molar value.

compound | boundSign | pEC50
CCn1c(=O)n(O)c(=O)c2cc(-c3cn(Cc4cccc(F)c4)nn3)ccc21 | = | 4.89
Cn1c(=O)n(O)c(=O)c2cc(-c3cn(Cc4ccc([N+](=O)[O-])cc4)nn3)ccc21 | < | 4.00
Nc1ccn(C[C@@H](CO)OCP(=O)(O)O)c(=O)n1 [CIDOFOVIR] | = | 5.00
Cn1c(=O)n(O)c(=O)c2cc(-c3cn(Cc4ccccc4F)nn3)ccc21 | < | 4.00
CCn1c(=O)n(O)c(=O)c2cc(-c3cn(Cc4c(Cl)cccc4Cl)nn3)ccc21 | < | 4.00
CCn1c(=O)n(O)c(=O)c2cc(-c3cn(Cc4cc(F)ccc4F)nn3)ccc21 | < | 4.00
COc1ccc(Cn2cc(-c3ccc4c(c3)c(=O)n(O)c(=O)n4C)nn2)cc1 | = | 4.92
Cn1c(=O)n(O)c(=O)c2cc(-c3cn(Cc4ccccc4)nn3)ccc21 | < | 4.00
Cn1c(=O)n(O)c(=O)c2cc(-c3cn(Cc4cccc(F)c4)nn3)ccc21 | < | 4.00
Cc1cn([C@H]2C[C@H](F)[C@@H](CO)O2)c(=O)[nH]c1=O [ALOVUDINE] | = | 5.00

====

experiment: Cytotoxicity against HEL cells assessed as alteration of cell morphology after 3 days by microscopic analysis
Type: toxicity, cell-based
conditions: human
Recorded MCC at 72 h values for a group of compounds are listed next.

lineNotation | MCC at 72 h
CCn1c(=O)n(O)c(=O)c2cc(-c3cn(Cc4ccc(C#N)cc4)nn3)ccc21 | > 100 µM
Cn1c(=O)n(O)c(=O)c2cc(-c3cn(Cc4ccc([N+](=O)[O-])cc4)nn3)ccc21 | > 100 µM
CCn1c(=O)n(O)c(=O)c2cc(-c3cn(Cc4ccc(OC)cc4)nn3)ccc21 | > 100 µM
Cn1c(=O)n(O)c(=O)c2cc(-c3cn(Cc4c(F)cccc4F)nn3)ccc21 | 100 µM
Cc1cn([C@H]2C[C@H](F)[C@@H](CO)O2)c(=O)[nH]c1=O | > 250 µM

====

System: Human adenovirus 2
experiment: Antiviral activity against Human adenovirus 2 infected in HEL cells assessed as inhibition of virus-induced cytopathicity
Type: functional, cell-based
conditions: Human mastadenovirus C
pEC50: −log10 of the molar value.

compound | pEC50
Cc1ccccc1Cn1cc(-c2ccc3c(c2)c(=O)n(O)c(=O)n3C)nn1 | < 4.00
CCn1c(=O)n(O)c(=O)c2cc(-c3cn(Cc4ccc(F)cc4F)nn3)ccc21 | < 4.00
Cn1c(=O)n(O)c(=O)c2cc(-c3cn(Cc4c(Cl)cccc4Cl)nn3)ccc21 | < 4.00
Cn1c(=O)n(O)c(=O)c2cc(-c3cn(Cc4ccc(F)c(F)c4)nn3)ccc21 | < 4.00
CCn1c(=O)n(O)c(=O)c2cc(-c3cn(Cc4ccc(F)cc4)nn3)ccc21 | < 4.00
Nc1ccn([C@H]2CC[C@@H](CO)O2)c(=O)n1 [ZALCITABINE] | 5.14
CCn1c(=O)n(O)c(=O)c2cc(-c3cn(Cc4c(F)cccc4F)nn3)ccc21 | 5.10
CCn1c(=O)n(O)c(=O)c2cc(-c3cn(Cc4ccccc4)nn3)ccc21 | 4.92
CCn1c(=O)n(O)c(=O)c2cc(-c3cn(Cc4ccc([N+](=O)[O-])cc4)nn3)ccc21 | < 4.00

====

experiment: Cytotoxicity against HEL cells assessed as alteration of cell morphology after 3 days by microscopic analysis
Format: toxicity, cell-based
conditions: human
reportedProperty: MCC at 72 h

compound | measured
CCn1c(=O)n(O)c(=O)c2cc(-c3cn(Cc4ccccc4F)nn3)ccc21 | > 100 µM
Cn1c(=O)n(O)c(=O)c2cc(-c3cn(Cc4c(Cl)cccc4Cl)nn3)ccc21 | > 100 µM
Cn1c(=O)n(O)c(=O)c2cc(-c3cn(Cc4ccc(C#N)cc4)nn3)ccc21 | > 100 µM
Nc1ccn(C[C@@H](CO)OCP(=O)(O)O)c(=O)n1 [CIDOFOVIR] | > 250 µM
CCn1c(=O)n(O)c(=O)c2cc(-c3cn(Cc4ccccc4)nn3)ccc21 | > 100 µM
CCn1c(=O)n(O)c(=O)c2cc(-c3cn(Cc4c(Cl)cccc4Cl)nn3)ccc21 | > 100 µM
